target: human full-lengt MKNK1 (Homo sapiens, UniProt Q9BUB5, T385D); construct: GST (N); assay: MKNK1 kinase assay (MKNK1 TR-FRET assay); conditions: final ATP 10 μM, 15 min pre-incubation, GST-MKNK1 (T344D)
Sequence (Q9BUB5 1-424 isoform Q9BUB5-2 T344D): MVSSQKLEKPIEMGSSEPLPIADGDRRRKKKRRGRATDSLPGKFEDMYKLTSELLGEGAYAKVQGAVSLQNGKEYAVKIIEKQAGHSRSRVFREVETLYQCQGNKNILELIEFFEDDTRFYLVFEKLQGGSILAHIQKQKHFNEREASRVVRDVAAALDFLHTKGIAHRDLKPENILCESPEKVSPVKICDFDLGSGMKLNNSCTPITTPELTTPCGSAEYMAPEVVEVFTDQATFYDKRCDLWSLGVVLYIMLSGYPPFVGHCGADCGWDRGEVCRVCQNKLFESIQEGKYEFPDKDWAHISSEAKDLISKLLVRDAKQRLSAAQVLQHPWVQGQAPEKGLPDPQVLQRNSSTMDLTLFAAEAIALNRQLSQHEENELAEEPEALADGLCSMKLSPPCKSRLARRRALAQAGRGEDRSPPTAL
pIC50: −log10 of the molar value.
Param threshold (8) applies to pIC50; output t when value >= threshold, f when value < threshold.

# example entries with known answers
OC(CNc1ccc2ncc(-c3cc4ccccc4o3)n2n1)c1ccccn1 (stereo not shown) = t
OC[C@H](O)CNc1ccc2ncc(-c3cc4ccccc4o3)n2n1 = t
c1cc(-c2cnc3ccc(NC4CCOCC4)nn23)ccn1 [Example R5, reference compound] = f
c1cc(Nc2ccc3ncc(-c4ccncc4)n3n2)ccn1 [Example R4, reference compound] = f
O[C@@H](CNc1ccc2ncc(-c3cc4ccccc4o3)n2n1)c1ccccc1 = t
CC(O)(CNc1ccc2ncc(-c3cc4ccccc4o3)n2n1)c1ccccc1 (stereo not shown) = f

Ask: Tell me whether pIC50 is at least 8 here: OC(CCNc1ccc2ncc(-c3cc4ccccc4o3)n2n1)c1ccc(F)cc1 (stereo not shown)
Reply: f

---

target: human full-length MKNK1 (Homo sapiens, UniProt Q9BUB5, T385D); construct: GST (N); assay: MKNK1 kinase high ATP assay (TR-FRET-based); conditions: final ATP 2 mM, 15 min pre-incubation with MKNK1, GST-MKNK1 (T344D)
Sequence (Q9BUB5 1-424 isoform Q9BUB5-2 T344D): as above
Reported IC50 values follow for various molecules
Write it as a number; the unit nM goes unstated.

OC(CNc1ccc2ncc(-c3cc4ccccc4o3)n2n1)C1CCCCC1 (stereo not drawn) = 29
OC(CNc1ccc2ncc(-c3cc4ccccc4o3)n2n1)CN1CCCC1 (stereo not drawn) = 38
CCC(O)CNc1ccc2ncc(-c3cc4ccccc4o3)n2n1 (stereo not drawn) = 6
c1cc(Nc2ccc3ncc(-c4ccncc4)n3n2)ccn1 [Example R4, reference compound] = 810
OC(CNc1ccc2ncc(-c3cc4ccccc4o3)n2n1)C1CC1 (single isomer, unassigned; (-)) [Example 24] = 1

// molecule COc1nccc2oc(-c3cnc4ccc(NCC(O)C5CC5)nn34)cc12 (stereo not drawn) , assay human full-length MKNK1 (Homo sapiens, UniProt Q9BUB5, T385D), IC50 value: 4

The recorded IC50 with human full-length MKNK1 (Homo sapiens, UniProt Q9BUB5, T385D) for COc1nccc2oc(-c3cnc4ccc(NCC(O)C5CCOCC5)nn34)cc12 (stereo not drawn) was 18

COc1nccc2oc(-c3cnc4ccc(NC[C@H](O)c5ccccc5)nn34)cc12 on human full-length MKNK1 (Homo sapiens, UniProt Q9BUB5, T385D) gives IC50 = 5

Measured IC50 for this entry O=C1CCCN1CC(O)CNc1ccc2ncc(-c3cc4ccccc4o3)n2n1 (stereo not drawn) on human full-length MKNK1 (Homo sapiens, UniProt Q9BUB5, T385D): 26

---

target: human full-length MKNK1 (Homo sapiens, UniProt Q9BUB5, T385D); construct: GST (N); assay: MKNK1 kinase high ATP assay (TR-FRET-based); details: final ATP 2 mM, 15 min pre-incubation with MKNK1, GST-MKNK1 (T344D);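 further: biotinylated peptide phosphorylation read out via Eu-chelate to streptavidin-XL665 energy transfer using anti-phospho-S6 (Ser236) antibody, 30 min reaction at 22 °C with 0.06 µM substrate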
PARAMETER: IC50 (µM)
// units = µM; emit number, no label

OC(CNc1ccc2ncc(-c3cc4ccccc4o3)n2n1)CN1CCOCC1 (centres unmarked) [Example 38] = 0.032
NCC(O)CNc1ccc2ncc(-c3cc4ccccc4o3)n2n1 (centres unmarked) [Example 31] = 0.008
COc1nccc2oc(-c3cnc4ccc(NC[C@@H](O)c5ccccc5)nn34)cc12 [Example 35] = 0.025
c1ccc(CCNc2ccc3ncc(-c4cc5ccccc5o4)n3n2)nc1 [Example R6, reference compound] = 0.25
OC(CNc1ccc2ncc(-c3cc4ccccc4o3)n2n1)C1CCOCC1 (single isomer, unassigned; (-)) [Example 26] = 0.002
c1ccc2oc(-c3cnc4ccc(NCc5ccncc5)nn34)cc2c1 [Example R8, reference compound] = 0.034
c1ccc(Nc2ccc3ncc(-c4ccncc4)n3n2)cc1 [Example R2, reference compound] = 0.17
OC(CNc1ccc2ncc(-c3cc4ccccc4o3)n2n1)C1CC1 (single isomer, unassigned; (+)) [Example 23] = 0.027
CN(C)CCNc1ccc2ncc(-c3cc4ccccc4o3)n2n1 [Example R7, reference compound] = 0.013
CC(C)C(O)CNc1ccc2ncc(-c3cc4ccccc4o3)n2n1 (centres unmarked) [Example 33] = 0.021

// sample CC(C)(C)C(O)CNc1ccc2ncc(-c3cc4ccccc4o3)n2n1 (centres unmarked) [Example 34] , its IC50 was 0.021

For reference, reported IC50 for OC(CNc1ccc2ncc(-c3cc4ccccc4o3)n2n1)C1CCOCC1 (single isomer, unassigned; (+)) [Example 25] stands at 0.007

response.value for c1ccc(CNc2ccc3ncc(-c4ccncc4)n3n2)cc1 [Example R1, reference compound] (field: IC50) = 0.37

IC50 measured on c1cc(-c2cnc3ccc(NC4CCOCC4)nn23)ccn1 [Example R5, reference compound] = 0.48

# compound OC(CNc1ccc2ncc(-c3cc4ccccc4o3)n2n1)c1ccc(F)cc1 (centres unmarked) [Example 41] ; its IC50 = 0.041

Summary for this compound, CCC(O)CNc1ccc2ncc(-c3cc4c(OC)nccc4o3)n2n1 (centres unmarked) [Example 30] : IC50 is 0.006

The compound listed as OC(CNc1ccc2ncc(-c3cc4ccccc4o3)n2n1)CN1CCCCC1 (centres unmarked) [Example 39] shows IC50 equal to 0.037

---

molecular target: human full-lengt MKNK1 (Homo sapiens, UniProt Q9BUB5, T385D); construct: GST (N); assay: MKNK1 kinase assay (MKNK1 TR-FRET assay); conditions: final ATP 10 μM, 15 min pre-incubation, GST-MKNK1 (T344D)
PARAMETER: pIC50
Hey, just a heads up that pIC50 is the negative log base 10 of the concentration in molar.

CC[C@@H](CO)Nc1ccc2ncc(-c3cc4ccccc4o3)n2n1 = 7.82

Bench note, human full-lengt MKNK1 (Homo sapiens, UniProt Q9BUB5, T385D): entry O[C@H](CNc1ccc2ncc(-c3cc4ccccc4o3)n2n1)c1ccccc1 , its pIC50 = 7.66

Lab entry: human full-lengt MKNK1 (Homo sapiens, UniProt Q9BUB5, T385D) assay, compound c1ccc(Nc2ccc3ncc(-c4ccncc4)n3n2)cc1 [Example R2, reference compound] , pIC50 = 7.19

Bench note, human full-lengt MKNK1 (Homo sapiens, UniProt Q9BUB5, T385D): O[C@@H](CNc1ccc2ncc(-c3cc4ccccc4o3)n2n1)c1cccnc1 , pIC50 reads 9.00

// returns pIC50 for c1ccc(CNc2ccc3ncc(-c4ccncc4)n3n2)cc1 [Example R1, reference compound] with human full-lengt MKNK1 (Homo sapiens, UniProt Q9BUB5, T385D); value = 6.74

Fill in: human full-lengt MKNK1 (Homo sapiens, UniProt Q9BUB5, T385D) pIC50 for OCCCNc1ccc2ncc(-c3cc4ccccc4o3)n2n1 = 8.15

The compound c1ccc2oc(-c3cnc4ccc(NCc5ccncc5)nn34)cc2c1 [Example R8, reference compound] , when measured on human full-lengt MKNK1 (Homo sapiens, UniProt Q9BUB5, T385D), yielded pIC50 of 7.64

# value of pIC50, human full-lengt MKNK1 (Homo sapiens, UniProt Q9BUB5, T385D), item c1ccc(CCNc2ccc3ncc(-c4cc5ccccc5o4)n3n2)nc1 [Example R6, reference compound] = 7.77

---

Entries and their IC50 values follow.
biological target: human full-lengt MKNK1 (Homo sapiens, UniProt Q9BUB5, T385D); construct: GST (N); assay: MKNK1 kinase assay (MKNK1 TR-FRET assay); conditions: final ATP 10 μM, 15 min pre-incubation, GST-MKNK1 (T344D)

// below: answered compounds
OCCNc1ccc2ncc(-c3cc4ccccc4o3)n2n1 = 6 nM
OC[C@@H](O)CNc1ccc2ncc(-c3cc4ccccc4o3)n2n1 = 13 nM

Here is another compound to look at.
The reported human full-lengt MKNK1 (Homo sapiens, UniProt Q9BUB5, T385D) IC50 of CN(C)CCNc1ccc2ncc(-c3cc4ccccc4o3)n2n1 [Example R7, reference compound] is 11 nM
